These data points were gathered from PubChem BioAssay (NCI).

# Test system: HOP-62 NSCLC
# assay remarks: NCI tumour cell line growth inhibition, 48 h; in the data active means GI50 below about 0.43 µM; inactive means the rest
Write down the outcome that applies. Available outcomes: active, inactive

Examples with answers:
COc1cc(OC)c(/C=C/S(=O)(=O)Cc2ccc(OC)c(N)n2)c(OC)c1	active
O=C1c2ccc3c4c(ccc(c24)C(=O)N1CCCCO)C(=O)N(CCCCO)C3=O	inactive
N#Cc1ccc2c(-c3ccnc(NC4CC4)n3)c(-c3ccc(F)cc3)nn2c1	inactive

q: Call for entry c1c2c(cc3c1OCO3)-c1ncc3cc4c(cc3c1C2)OCO4 :
a: active

q: Call for entry CN1CCN(Cc2ccc(NC(=O)c3cncc(C#Cc4c(N)ncc5ccccc45)c3)cc2C(F)(F)F)CC1 :
a: inactive

q: Call for entry CSc1ccc(-c2cn3ccsc3n2)cc1 :
a: inactive

q: Call for entry Nc1nc(SCC#CCCl)c2[nH]cnc2n1 :
a: inactive

q: Call for entry CC/C(=C/c1ccc(OC)cc1)[N+](=O)[O-] :
a: inactive

q: Call for entry CC1CCc2c(C(=O)Nc3ncc(Cc4cccc([N+](=O)[O-])c4)s3)csc2C1 (stereo not given) :
a: inactive

q: Call for entry COc1ccc([C@@H]2[C@@H](Cl)C(=O)N2c2cc(OC)c(OC)c(OC)c2)cc1C :
a: active
